molecular target: recombinant, human, C-terminally-His tagged NAMPT (Homo sapiens, UniProt P43490); test: Time-Resolved Fluorescence Resonance Energy Transfer (TR-FRET) binding assay of NAMPT; conditions: 6.8 nM NAMPT, 200 nM probe (Oregon Green 488-conjugated APO866), 1 nM Tb-anti-His antibody, 2-3 hours
Sequence (P43490 whole entry): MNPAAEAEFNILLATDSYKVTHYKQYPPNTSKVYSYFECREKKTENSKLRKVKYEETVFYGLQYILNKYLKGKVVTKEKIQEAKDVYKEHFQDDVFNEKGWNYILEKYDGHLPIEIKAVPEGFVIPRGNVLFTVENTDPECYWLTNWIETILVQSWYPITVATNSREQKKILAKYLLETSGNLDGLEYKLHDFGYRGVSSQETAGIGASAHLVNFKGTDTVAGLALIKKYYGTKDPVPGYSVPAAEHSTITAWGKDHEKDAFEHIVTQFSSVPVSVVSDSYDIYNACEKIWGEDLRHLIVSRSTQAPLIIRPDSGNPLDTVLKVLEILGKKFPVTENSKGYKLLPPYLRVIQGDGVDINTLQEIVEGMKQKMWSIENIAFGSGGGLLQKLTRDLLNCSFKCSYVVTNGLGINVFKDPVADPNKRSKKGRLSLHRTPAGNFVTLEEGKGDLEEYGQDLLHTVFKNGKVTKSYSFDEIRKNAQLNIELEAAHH
recorded-endpoint: log10 of IC50 (log10 of the value in µM)
Could you please treat all values as log10 of IC50 in µM?

[in] Using the record for CC(C)CCNC(=O)Cc1ccc(NC(=O)N2CCc3ccccc3C2)cc1 , state its measured log10 of IC50.
[out] 0.18

[in] Using the record for CC(C)(C)OC(=O)N1CC=C(c2ccc(NC(=O)N3CCc4ccccc4C3)cc2)CC1 , state its measured log10 of IC50.
[out] -1.31

[in] Using the record for O=C(Nc1ccc(NC(=O)N2CCc3ccccc3C2)cc1)c1ccsc1 , state its measured log10 of IC50.
[out] -0.62

[in] Using the record for O=C(NCCc1cccs1)c1ccc(NC(=O)N2CCc3cnccc3C2)cc1 , state its measured log10 of IC50.
[out] -1.34

[in] Using the record for CC(C)C(=O)NCCc1ccc(NC(=O)N2CCc3ccccc3C2)cc1 , state its measured log10 of IC50.
[out] 0.17

[in] Using the record for CC(C)CCN1CC=C(c2ccc(NC(=O)N3CCc4ccccc4C3)cc2)CC1 , state its measured log10 of IC50.
[out] -0.36

[in] Using the record for O=C(Nc1ccc(C2=CCNCC2)cc1)N1CCc2ccccc2C1 , state its measured log10 of IC50.
[out] -0.54

[in] Using the record for O=C(Nc1ccc(NC(=O)N2CCc3ccccc3C2)cc1)c1ccoc1 , state its measured log10 of IC50.
[out] -0.57

[in] Using the record for CC(C)C(=O)N1CC=C(c2ccc(NC(=O)N3CCc4ccccc4C3)cc2)CC1 , state its measured log10 of IC50.
[out] -1.82
